experiment: Biodistribution in brainstem and serum of mice, HPLC analysis of tissue extracts; format: in vivo; details: mouse, brainstem relative to serum, intraperitoneal; brainstem concentration as % of serum concentration; analyte UR-8; UR-8 treated mice; read-out: Brain penetration ratio (UR-8)
Observed Property: Kp at 3 h
Respond using a number only.

Exam item: Given `OCCCNc1cc(N2CCc3ccccc3CC2)nc(-c2ccccn2)n1` , respond with its Kp at 3 h.
Marked response: 0.0877

* * *

assay: Biodistribution in brainstem and serum of mice, HPLC analysis of tissue extracts; assay type: in vivo; details: mouse, serum, ip; UR-8 treated mice; analyte UR-8; 3 hours after intraperitoneal injection; read-out: UR-8 concentration, Serum
Observed Property: concentration at 3 h (ng/mL)
Give the number; ng/mL is assumed, so skip it.

Exam item: Given OCCCNc1cc(N2CCc3ccccc3CC2)nc(-c2ccccn2)n1 [UR-8] , respond with its concentration at 3 h.
Marked response: 4460
